# tgt: T1, recombinant cynomolgus CFD, His-tagged (cynomolgus)
# T1 construct: also called rcyCFD-His; recombinant Cyno-CFD
# assay_procedure: SPR MX96
measurement_label: Kd

binder	Kd
KCD066 (antibody, V domains shown) VH: QVQLQQSAAELARPGASVKMSCKASGYTFTDYTMHWVKQRPGQGLEWIGYINPSGGYTDYNQKFKDKTALTADKSSSTAYMQLSSLTSEDSAVYYCARRRDYWFAYWGQGTLVTVSA VL: DIVMSQSPSSLAVSVGEKVTMSCKSSQSLLYSGNQKNYLAWYQQKPGQSPKLLIYWASTRESGVPDRFTGSGSGTDFTLTISSVKAEDLAVYYCHQYYSYLTFGAGTKLELK	4 nM
KCD219 (antibody, V domains shown) VH: QVQLQQSGPELVKPGASVKISCKASGYTFTDYYINWVKQRPGQGLEWIGWIFPGSGSTYYNEKFKGKATLTVDKSSSTAYMLLSSLPSEDSAVYFCARYGYYGSSFYAMDYWGQGTSVTVSS VL: DIQMTQSPASLSVSVGETVTITCRASENIYSNLAWYQQKQGKSPQLLVYAATNLADGVPSRFSGSGSGTQYSLKINSLQSEDFGSYYCQHFWGSPPTFGGGTKLEIK	12 nM
KCD232 (antibody, V domains shown) VH: EVQLVESGGGLVQPKGSLKLSCAASGFSFNTYAMNWVRQAPGKGLEWVARIRSKSNNYATYYADSVKDRFTISRDDSESMVYLQMNNLKTEDTAMYYCVRHGYYWYFDVWGTGTTVTVSS VL: DVLMTQTPLSLPVSLGDQASISCRSSQSIVHSDGNTYLEWYLQKPGQSPKLLIYRVSNRFSGVPDRFSGSGSGTDFTLKISRMEAEDLGVYYCFQGSHVPYTFGGGTKLEIK	5.5 nM
KCD075 (antibody, V domains shown) VH: QVQLLQPGAELVRPGTSVKLSCKASGYTFSNYWINWVKQRPGQGLEWIGNIYPSDSSINYNQKFKDKATLTVDKSSTTAYMQLSSPTSEDSAVYYCTGTDWYFDVWGAGTTVTVSS VL: DIQMTQTTSSLSASLGDRVTISCSGGQGISNYLNWYQQKPDGTFKLLIYYTSTLHSGVPSRFSGSGSGTDYSLTISNLEPEDVATYYCQQYSKLPYTFGGGTKLEIK	3.2 nM
KCD101 (antibody, V domains shown, chimeric) VH: QVQLQQPGAELVRPGTSVKLSCKASGYTFTSYWMHWVKQRPGQGLEWIGVIDPSDSYTNYNQKFKGKATLTVDTSSSTAYMQLSSLTSEDSAVYYCGRNGYDGSMDYWGQGTSVTVSS VL: DIQMTQTTSSLSASLGDRVTISCRASQDISNYLNWYQQKPDGTVKLLIYYPSRLHSGVPSRFSGSGSGTDYSLTISNLEQEDFATYFCQQGNTLPYTFGGGTKLEIK	240 nM
KCD058 (antibody, V domains shown) VH: EVKLVESGGDLVQPGGSLKLSCAASGFTFSRYIMSWVRLTPEKRLEWVAFITNGGGNTYHPDTVKGRFTISRDNANNTLYLQMSSLKSEDTAIYYCARHDYYALDYWGQGTSVTVSS VL: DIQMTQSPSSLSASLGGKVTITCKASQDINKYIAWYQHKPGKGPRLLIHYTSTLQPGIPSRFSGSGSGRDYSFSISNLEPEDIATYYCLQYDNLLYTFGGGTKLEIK	11 nM
KCD230 (antibody, V domains shown) VH: QVQLQQPGTELVKPGASVKLPCKASGYTFTSYWMQWVKQRPGQGLEWIGEIDPSDTYINYNQKFKGKATLTVDTSSTTAYMQLSSLTSEDSAVYYCARYTTIMASDYWGQGTTLTVSS VL: DIQMTQTTSSLSVSLGDRVTISCRASQDITNYLNWYQQKPDGTVKLLIYFTSRLHSGVPSRFSGSGSGTDYSLTISNLEPEDIATYYCQQYSKLPWTFGGGTKLEIK	2.7 nM
KCD009 (antibody, V domains shown, chimeric) VH: QIQLVQSGPELKKPGETVKISCKASGYIFRNYGMNWVKQGPGKGLKWMGWINTYTGEPTYADDFKGRFAFSLETSASTAYLQISNLKNEDTATYFCVRDGPGFAYWGQGTLVTVSA VL: DVLMTQTPLSLPVSLGDQASISCRSSLIIEHSDGNTYLEWYLQKPGQSPKLLIYKVSNRFSGVPDRFSGSGSGTDFTLKISRVEADDLGVYYCFQGSHVPVTFGAGTNLELK	9.9 nM
KCD003 (antibody, V domains shown, chimeric) VH: EVQLQQSRPELVKPGASVKIFCKASGYTFTDYYMNWMRQRHGETLEWIGDINPNNGDPSYNQKFKDKATLTVDKSSSTASMELRSLTSDDSAVYYCAREGPSFAYWGQGTLVTVSA VL: DVLMTQTPLSLPVSLGEQASISCRSSQTIVHSNGDTYLEWYLQKPGQSPNLLIYKVSNRFSGVPDRFSGSGSGTDFTLKISRVEAEDLGVYYCFQGSHVPPTFGGGTKLEIK	1.8 nM

Kindly review the next binder as well.
Asked: Dear colleague, please send me the reported Kd for KCD210 (antibody, V domains shown) VH: EVQLQQSGPVLVKPGASVTMSCKASGYTFTEYYMNWVKQSHGKSLDWIGVINPYSGGTSYKQKFKDKATLTVDKSSSTAYMELNGLTSEDSAVYFCVRGGLRRNYFDYWGQGTTLTVSS VL: EIVLTQSPALMTASPGEKVTITCSVSSSISSTNLHWYQQKSGTSPKPWIFGTSNLASGVPVRFSGSGSGTSYSLTISNMEAEDAATYYCQQWNSYPFTFGTGTKLEIK when you can.
Given back: 3.6 nM
